# SYSTEM_NAME: Alpha-2C adrenergic receptor (Homo sapiens)
# EXPERIMENTAL_DETAILS: compounds altering alpha2C-coupled GIRK flux – cell-based, HEK293 alpha2C/GIRK1/2, thallium flux, primary screen (AID 624);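 further: slope of fluorescence ratio to pre-addition baseline per second over 15 to 24 s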
# EXPERIMENTAL_CONDITIONS: thallium flux BTC fluorescence, at 10 µM, actives lie on both sides
The source made the active and inactive calls.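 How the source made its calls: active means fluorescence slope after compound addition differing from the mean of all screened samples at 99.7% confidence, in either direction; inactive means the rest.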
Respond with a class label; see active, inactive

// param item: Cc1ccc(C(=O)Nc2c(C(=O)N3CCOCC3)cnn2-c2ccccc2)cc1 ; yields the recorded call
inactive

// param item: O=C(CCn1c(=O)c2ccccc2n(CC(=O)NCCC2=CCCCC2)c1=O)NCc1ccco1 ; yields the recorded call
inactive

// param item: CCOc1ccccc1N1CC(O)=C(c2nc3ccccc3s2)C1=N ; yields the recorded call
inactive

// param item: Cc1ccnc(NS(=O)(=O)c2ccc(NC(=O)Cc3cccs3)cc2)n1 ; yields the recorded call
inactive

// param item: Cc1ccc(OCC(O)Cn2c(NCCc3ccccc3)nc3c2c(=O)[nH]c(=O)n3C)cc1 (stereo not drawn) ; yields the recorded call
inactive

// param item: CCCCc1cc2c(c(NC(C)=O)n1)c(=O)oc1ccccc12 ; yields the recorded call
inactive

// param item: CCOC(=O)c1nnc2cc(-c3ccc(Br)cc3)nn2c1C ; yields the recorded call
inactive

// param item: C1=Nc2c(NCc3ccccc3)ncnc2Oc2ccccc21 ; yields the recorded call
inactive

// param item: CC1Cc2nc(SCC(N)=O)n(Cc3ccccc3)c(=O)c2S1 (stereo not drawn) ; yields the recorded call
inactive

// param item: Fc1cccc2sc(Nc3nnc(-c4ccco4)o3)nc12 ; yields the recorded call
active

// param item: COC(=O)NCC(c1cccnc1)N1CCOCC1 (stereo not drawn) ; yields the recorded call
inactive

// param item: O=C(Cn1nc(Cc2cccnc2)c2ccccc2c1=O)Nc1ccc2c(c1)OCO2 ; yields the recorded call
inactive

// param item: CC(C)n1nnnc1SCC(=O)Nc1ccccc1N1CCOCC1 ; yields the recorded call
inactive

// param item: Cc1ccc(-c2cn3cccnc3n2)cc1NC(=O)c1ccc(Br)o1 ; yields the recorded call
inactive

// param item: C=CCn1c(Cc2cccs2)nnc1SCC(=O)Nc1ccc(OC)c(OC)c1 ; yields the recorded call
inactive

// param item: Cc1cc(C)n2nc(SCc3nc4ccccc4[nH]3)nc2n1 ; yields the recorded call
inactive

// param item: COc1ccc2[nH]c(=O)c(CN(Cc3cccs3)Cc3nnnn3C(C)(C)C)cc2c1 ; yields the recorded call
inactive

// param item: Cc1ccc(-n2c(SCC3CCCCO3)nnc2-c2ccco2)cc1 (stereo not drawn) ; yields the recorded call
inactive

// param item: O=c1c2cnn(-c3ccccc3)c2ncn1/N=C/c1ccncc1 ; yields the recorded call
inactive

// param item: CSCCC(NC(=O)CCN1C(=O)c2ccccc2C1=O)C(=O)O (stereo not drawn) ; yields the recorded call
inactive

// param item: CCCCSc1nc(CCC)cc(=O)[nH]1 ; yields the recorded call
inactive

// param item: Cc1cccc(NC(=O)CCCCCN2C(=O)c3ccccc3C2=O)n1 ; yields the recorded call
inactive

// param item: COc1ccc(S(=O)(=O)NCCOc2ccccc2)cc1OC ; yields the recorded call
inactive
